Molecular target: T1, FZD2 CRD (Homo sapiens, UniProt Q14332)
T1 construct: D35-P161; GPI anchor signal (C); expressed in transfected cells; host or cells: CHO cells, lentiviral pLenti-puro
Assay: Immunofluorescence of anti-FZD5 Fab binding to CHO cells overexpressing Frizzled CRD
Parameters: key: −: no binding; +: very weak binder; ++: weak binder; +++: good binder; ++++: very good binder
Description: Plasmids: pLCKO lentiviral vector used for knockout (TKO) library construction and expression of individual gRNAs was constructed as described previously (Hart et al., 2015). Briefly, single guide RNA (sgRNA) scaffold was amplified from px330 (Addgene 42230) and cloned into pLKO.TRC005 lentiviral vector (Broad Institute, Cambridge, Mass.) using AgeI/EcoRI restriction sites. BfuAI sites were added at the 5′ end of the sgRNA scaffold for cloning the TKO library or individual gRNA target sequences. […]
parameterMeasured: Immunofluorescence binding, Frizzled CRD overexpressed on CHO cells: FZD2

Answered examples (4):
>  <molecule>
Fab-2898: anti-FZD5 Fab with antibody variable region Fv-2898; CDR SEQ ID NOs: 35, 36, 37, 76, 113, 152 (antibody, V domains shown) VH: EVQLVESGGGLVQPGGSLRLSCAASGFNIYSYSMHWVRQAPGKGLEWVASIYSSSGSTSYADSVKGRFTISADTSKNTAYLQMNSLRAEDTAVYYCARAVWGLDYWGQGTLVTVSS VL: DIQMTQSPSSLSASVGDRVTITCRASQSVSSAVAWYQQKPGKAPKLLIYSASSLYSGVPSRFSGSRSGTDFTLTISSLQPEDFATYYCQQWWGYYSLITFGQGTKVEIK

>  <endpointValue>
+++

$$$$
>  <molecule>
Fab-2927: anti-FZD5 Fab with antibody variable region Fv-2927; CDR SEQ ID NOs: 35, 36, 66, 104, 142, 174 (antibody, V domains shown) VH: EVQLVESGGGLVQPGGSLRLSCAASGFNIYYSSMHWVRQAPGKGLEWVASIYPSYGYTSYADSVKGRFTISADTSKNTAYLQMNSLRAEDTAVYYCARYGYYGFDYWGQGTLVTVSS VL: DIQMTQSPSSLSASVGDRVTITCRASQSVSSAVAWYQQKPGKAPKLLIYSASSLYSGVPSRFSGSRSGTDFTLTISSLQPEDFATYYCQQWGSHGYLITFGQGTKVEIK

>  <endpointValue>
+++

$$$$
>  <molecule>
Fab-2907: anti-FZD5 Fab with antibody variable region Fv-2907; CDR SEQ ID NOs: 35, 36, 46, 85, 122, 159 (antibody, V domains shown) VH: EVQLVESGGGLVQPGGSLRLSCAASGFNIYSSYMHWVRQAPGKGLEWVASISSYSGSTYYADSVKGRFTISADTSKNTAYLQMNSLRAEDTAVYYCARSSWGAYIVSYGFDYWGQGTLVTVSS VL: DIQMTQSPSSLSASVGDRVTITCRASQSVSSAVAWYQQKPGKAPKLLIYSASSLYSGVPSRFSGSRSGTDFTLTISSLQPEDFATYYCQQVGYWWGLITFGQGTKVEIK

>  <endpointValue>
−

$$$$
>  <molecule>
Fab-2905: anti-FZD5 Fab with antibody variable region Fv-2905; CDR SEQ ID NOs: 35, 36, 44, 83, 120, 157 (antibody, V domains shown) VH: EVQLVESGGGLVQPGGSLRLSCAASGFNLSYYYMHWVRQAPGKGLEWVASIYSSYSYTSYADSVKGRFTISADTSKNTAYLQMNSLRAEDTAVYYCARSGYALDYWGQGTLVTVSS VL: DIQMTQSPSSLSASVGDRVTITCRASQSVSSAVAWYQQKPGKAPKLLIYSASSLYSGVPSRFSGSRSGTDFTLTISSLQPEDFATYYCQQSSWYYGYPFTFGQGTKVEIK

>  <endpointValue>
−

$$$$

Asked: Name the recorded Immunofluorescence binding, Frizzled CRD overexpressed on CHO cells: FZD2 for Fab-2935: anti-FZD5 Fab with antibody variable region Fv-2935; CDR SEQ ID NOs: 35, 36, 74, 111, 150, 178 (antibody, V domains shown) VH: EVQLVESGGGLVQPGGSLRLSCAASGFNIYYYYIHWVRQAPGKGLEWVASIYPSSGSTSYADSVKGRFTISADTSKNTAYLQMNSLRAEDTAVYYCARAAFDYWGQGTLVTVSS VL: DIQMTQSPSSLSASVGDRVTITCRASQSVSSAVAWYQQKPGKAPKLLIYSASSLYSGVPSRFSGSRSGTDFTLTISSLQPEDFATYYCQQWYGGYALITFGQGTKVEIK .
Given back: −

Asked: # lookup: Immunofluorescence binding, Frizzled CRD overexpressed on CHO cells: FZD2 of Fab-2926: anti-FZD5 Fab with antibody variable region Fv-2926; CDR SEQ ID NOs: 35, 36, 65, 103, 141, 173 (antibody, V domains shown) VH: EVQLVESGGGLVQPGGSLRLSCAASGFNIYSSYMHWVRQAPGKGLEWVASIYPSSSSTSYADSVKGRFTISADTSKNTAYLQMNSLRAEDTAVYYCARGGLDYWGQGTLVTVSS VL: DIQMTQSPSSLSASVGDRVTITCRASQSVSSAVAWYQQKPGKAPKLLIYSASSLYSGVPSRFSGSRSGTDFTLTISSLQPEDFATYYCQQWYHGGSLFTFGQGTKVEIK
Given back: −

Asked: GET /values?readout=Immunofluorescence binding, Frizzled CRD overexpressed on CHO cells: FZD2&item= Fab-2922: anti-FZD5 Fab with antibody variable region Fv-2922; CDR SEQ ID NOs: 35, 36, 61, 99, 137, 171 (antibody, V domains shown) VH: EVQLVESGGGLVQPGGSLRLSCAASGFNIYSSYMHWVRQAPGKGLEWVASISPYSGYTSYADSVKGRFTISADTSKNTAYLQMNSLRAEDTAVYYCARTVRGSKKPYFSGWAMDYWGQGTLVTVSS VL: DIQMTQSPSSLSASVGDRVTITCRASQSVSSAVAWYQQKPGKAPKLLIYSASSLYSGVPSRFSGSRSGTDFTLTISSLQPEDFATYYCQQSFVYPYLITFGQGTKVEIK
Given back: −

Asked: Quick one: Immunofluorescence binding, Frizzled CRD overexpressed on CHO cells: FZD2 of Fab-2915: anti-FZD5 Fab with antibody variable region Fv-2915; CDR SEQ ID NOs: 35, 36, 54, 93, 130, 166 (antibody, V domains shown) VH: EVQLVESGGGLVQPGGSLRLSCAASGFNIYYYSMHWVRQAPGKGLEWVASIYSSYGYTSYADSVKGRFTISADTSKNTAYLQMNSLRAEDTAVYYCARGYHYYPYYSGLDYWGQGTLVTVSS VL: DIQMTQSPSSLSASVGDRVTITCRASQSVSSAVAWYQQKPGKAPKLLIYSASSLYSGVPSRFSGSRSGTDFTLTISSLQPEDFATYYCQQAYYHSLITFGQGTKVEIK ?
Given back: +++
